target: Insulin-like growth factor 1 receptor (Homo sapiens); settings: at 0.1 µM;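 also: values are mean percent inhibition of IGF1R kinase activity, from the GSK published kinase inhibitor set (PKIS) screening panel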
result_type: inhibition (%)
Give bare numbers, in %.

Below, 3 compounds whose answers are already recorded.
mol_smiles	units_symbol	inhibition
CC(C)=Cc1cccc2c1/C(=N/Nc1ccc(S(N)(=O)=O)cc1)C(=O)N2	%	2.45
CCn1c(-c2nonc2N)nc2c(N3CCCC3)nccc21	%	0.23
COc1ccc(-c2nn3ncccc3c2-c2ccnc(Nc3ccc(Cl)c(C(F)(F)F)c3)n2)cc1	%	0.1

q: Lookup: inhibition / Insulin-like growth factor 1 receptor (Homo sapiens) / COc1cccc(-n2ncc3c(N/N=C/c4cccc(F)c4)ncnc32)c1
a: -6.82

----------
Answer each item with its documented inhibition.
target: Proto-oncogene tyrosine-protein kinase receptor Ret (Homo sapiens); settings: at 1 µM;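 also: each listed value is an averaged inhibition figure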
Answers are plain numbers, in %.

Some solved entries appear below for comparison.
compound	inhibition, %
Cc1cc(O)cc(C)c1/C=C/c1cncc(-c2nn[nH]n2)c1	9.47
CCn1c(-c2nonc2N)nc2c(C#CC(C)(C)O)nc(OC[C@@H](N)c3ccccc3)cc21	41.1
CC(=O)Nc1cccc(C#Cc2cncnc2Nc2ccc(OCc3cccc(F)c3)c(Cl)c2)n1	2.59
CC1=C(C(=O)Nc2ccc3[nH]ncc3c2)C(c2ccc(Cl)c(Cl)c2)CC(=O)N1 (centres undefined)	22.8
CS(=O)(=O)CCNCc1ccc(-c2ccc3ncnc(Nc4ccc(OCc5ccccc5)c(Cl)c4)c3c2)o1	9.58

# map each compound to its inhibition
1. CC1=C(C(=O)Nc2ccc3[nH]ncc3c2)C(c2ccc(F)cc2)NC(=O)N1 (centres undefined)
2. CNC(=O)c1cncc(/C=C/c2c(Cl)cccc2Cl)c1
3. COC(=O)Nc1nc2cc(Oc3cccc(NC(=O)Nc4cc(C(F)(F)F)ccc4F)c3)ccc2[nH]1
4. CCCN1CCC(Oc2cc(Nc3nc(Nc4cccc(F)c4C(N)=O)c4cc[nH]c4n3)c(OC)cc2Cl)CC1
5. CCN1CCC(CC(=O)Nc2n[nH]c3nc(-c4cccs4)c(Br)cc23)CC1
6. Cc1nnc(-c2ccc(C)c(-c3ccc(C(=O)Nc4cccc(C#N)c4)cc3)c2)o1
7. COc1cc(C=NNc2ncnc3c2cnn3-c2ccccc2)ccc1O
8. NS(=O)(=O)c1ccc(N/N=C2\C(=O)Nc3ccc(C(=O)NCCc4c[nH]cn4)cc32)cc1

a:
1. 35
2. 12.3
3. 61.1
4. 12.8
5. 3.8
6. 12.9
7. 80.6
8. 57.8
